Ref: the RepoRT retention time repository (doi:10.1007/s00216-021-03828-0)

experiment.description: RP, Merck Supelco Ascentis Express C18, 100 × 2.1 mm, 2 µm, 40 °C, 0.35 mL/min, estimated dead time 0.63 min; A: water + 0.1% formic acid, pH 3; B: acetonitrile + 0.1% formic acid, pH 3; gradient (min/%B) 0/5 2/5 17/99.9 20/99.9
study.conditions: stereoisomer not certain
readout.name: LC retention time (min)

NC(Cc1cc(I)c(Oc2cc(I)c(O)c(I)c2)c(I)c1)C(=O)O (stereo not given) [THYROXINE] :: 7.87
CC(O)(CCO)CC(=O)[O-] (stereo not given) [MEVALONATE] :: 0.863
CC(CCC(=O)NCCS(=O)(=O)O)C1CCC2C3CCC4CC(O)CCC4(C)C3CCC12C (stereo not given) [LITHOCHOLYLTAURINE] :: 9.86

I: Oc1ccccc1O [PYROCATECHOL]
II: CCC=CCC=CCC=CCC=CCC=CCC=CCCC(=O)O [DOCOSAHEXAENOATE]
Please state the entry with greater LC retention time among I and II . Write the label of whichever entry you select.
II
